These data points were gathered from ChEMBL document CHEMBL4513216.

# assay.comment: Toxicity liver stage against HepG2, at 10uM
# Format: cell-based
# Set-up: test concentration 10 uM, cell line HepG2-A16-CD81EGFP
# condition.label: human, HepG2-A16-CD81EGFP cells; read-out: INHIBITION
readout.kind: cytotoxicity at 10 µM (%)
Numeric answer only, unit % assumed.

Answered cases to consult:
CS(=O)(=O)NC1CCN(C(=O)NCCc2ccccn2)CC1 : -14.4
Cc1cc(NC(=O)NCC(O)c2ccc(F)c(F)c2)n(C)n1 (stereo unspecified) : -21.1
CCOC[C@@H]1CC[C@H]2[C@H](CCN2S(=O)(=O)c2ccc(F)cc2)O1 : 1.39
CS(=O)(=O)c1snnc1C1CCN(Cc2ccc3nccnc3c2)CC1 : -6.14
CN(C)C(=O)c1ccc(-c2cccc3c2CCNC3)o1 : -0.537

Consider the compound shown here: `Cc1nc(N2CCCC2)nc(N2CCC(O)(C(=O)O)CC2)c1C` What is its recorded cytotoxicity at 10 µM? -5.62

Also, Cc1cnc(-c2nc(C3CCCN(Cc4ccccc4C)C3)no2)cn1 (stereo unspecified) please. -2.33

Another compound: `CN(C)S(=O)(=O)CCNc1ncc2c(n1)CCN2c1ccccc1` -5.6

And what about the compound Cc1ccc(S(=O)(=O)NC(CO)CC(C)C)cc1N(C)C (stereo unspecified) ? -0.996

Another: `CCN1C[C@@H]2[C@@H](OC)CCN(S(=O)(=O)c3ccccc3)[C@@H]2C1` -2.7

What do we get for Cc1ccccc1N1CCN(C(=O)c2ncc(F)cc2F)C(C)C1 (stereo unspecified) ? 11.4

What about this compound? `Cc1cc(C(=O)N(C)Cc2ccoc2)c(NC(=O)C(C)(C)C)s1` 12.1

Note, next up: c1ccc(-c2noc(CNC3CCCN(c4cccnn4)C3)n2)nc1 (stereo unspecified) 4.86

# repeat for `COc1cc(-c2cc(NC3CCCC3)nc3[nH]ccc23)nc(N)n1` 10.2

Repeat with `Cn1c(-c2ccccc2Cl)nc2cc(C(=O)NCCS(C)(=O)=O)cnc21` -3.2

Request: OC1(CN2CCCC2)CCCN(Cc2ccc(F)cc2Cl)C1 (stereo unspecified) 20.9
